Molecular target: T1, Recombinant soluble E protein (0.8E-His) from DENV-2 (DENV-2, UniProt P14340 281-675)
T1 construct: also called DENV-2 E protein; DV2
Experiment: SPR, Biacore T200
READOUT NAME: binding result

>>> measurement("DG_3CH1046-SG182/3CL666-SK1 (antibody, V domains shown) VH: QVQLVQSGAEVKKPGASVKVSCKASGYTFTSYYMHWVRQAPGQGLEWMGVINPRGGSRRSAQKFQGRVTMTRDTSTSTVYMELSSLRSEDTAVYYCARGGRALFYDSYTTPFDGGSWWFDPWGQGSLVTVSS VL: DIQLTQSPSSLSASVGDRVTITCQASQEIRKYLNWYQQKPGKAPKLLIYDASNLKTGVPSRFSGSGSGTDFTLTISSLQPEDVATYYCQQFDDLPITFGQGTRLQIKR")
"binds"
>>> measurement("DG_3CH989-SG182/3CL012-SK1 (antibody, V domains shown) VH: QVQLVQSGAEVKKPGASVKVSCKASGYTFTSNYIHWVRQAPGQGLEWMGVINPRGGSRRSAQKFQGRVTMTRDTSTSTVYMELSSLRSEDTAVYYCARGGRALFYDSYTTPFDGGSWWFDPWGQGSLVTVSS VL: DIQLTQSPSSLSASVGDRVTFTCQASQDIRKYLNWYQQKPGKAPKLLIYDASNLKTGVPSRFSGSGSGTDFTFTISSLQPEDVATYYCQQFEDLPITFGQGTRLQIKR")
"binds"
